system tested: T1, human LIV-1 (human, UniProt Q13433 29-755)
T1 sequence (looked up): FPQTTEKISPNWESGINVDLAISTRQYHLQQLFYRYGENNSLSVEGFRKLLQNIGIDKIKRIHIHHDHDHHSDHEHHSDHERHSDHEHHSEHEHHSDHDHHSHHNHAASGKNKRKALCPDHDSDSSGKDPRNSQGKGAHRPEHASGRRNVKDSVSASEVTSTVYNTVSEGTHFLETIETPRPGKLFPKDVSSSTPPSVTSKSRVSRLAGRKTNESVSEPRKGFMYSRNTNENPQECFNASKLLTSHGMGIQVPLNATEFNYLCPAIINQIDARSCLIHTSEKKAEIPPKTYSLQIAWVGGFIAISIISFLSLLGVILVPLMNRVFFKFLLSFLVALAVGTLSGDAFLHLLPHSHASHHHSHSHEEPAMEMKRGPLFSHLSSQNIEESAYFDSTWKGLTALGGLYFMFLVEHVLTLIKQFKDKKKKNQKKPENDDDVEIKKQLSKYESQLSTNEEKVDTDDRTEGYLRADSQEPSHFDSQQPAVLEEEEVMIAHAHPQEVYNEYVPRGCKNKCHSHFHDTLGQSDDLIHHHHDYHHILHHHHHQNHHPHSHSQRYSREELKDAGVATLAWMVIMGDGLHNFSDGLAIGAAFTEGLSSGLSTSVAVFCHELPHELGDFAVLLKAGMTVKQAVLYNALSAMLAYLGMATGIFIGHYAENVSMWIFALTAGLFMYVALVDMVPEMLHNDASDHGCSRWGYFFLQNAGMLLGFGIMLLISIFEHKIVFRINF
test: cell-based or functional assay
readout kind: Bottom (% viability), BT20/H_LIV1-Low expression (%)

binder: LM-001-LM-D03 (antibody, V domains shown, LM-D03 drug-linker conjugated; site and chain not stated) VH: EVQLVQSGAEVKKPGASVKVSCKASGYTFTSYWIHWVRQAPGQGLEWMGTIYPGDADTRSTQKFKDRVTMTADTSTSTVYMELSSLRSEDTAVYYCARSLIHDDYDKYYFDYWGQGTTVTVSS VL: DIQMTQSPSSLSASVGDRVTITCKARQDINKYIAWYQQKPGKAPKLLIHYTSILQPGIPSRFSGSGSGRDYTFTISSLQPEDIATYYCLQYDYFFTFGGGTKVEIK
reported: 46.9
--
binder: 290F10G10.z2-MMAE (antibody, V domains shown, MMAE drug moiety conjugated; site and chain not stated, also called LM-001-MMAE) VH: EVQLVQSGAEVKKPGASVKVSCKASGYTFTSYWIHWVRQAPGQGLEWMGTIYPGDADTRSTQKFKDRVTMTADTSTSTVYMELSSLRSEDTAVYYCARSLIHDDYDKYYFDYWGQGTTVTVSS VL: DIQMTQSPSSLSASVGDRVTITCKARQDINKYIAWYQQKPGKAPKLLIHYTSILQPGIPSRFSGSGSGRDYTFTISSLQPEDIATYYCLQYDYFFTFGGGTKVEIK
reported: 46.8
--
binder: LM-001-DXD (antibody, V domains shown, DXD drug moiety conjugated; site and chain not stated) VH: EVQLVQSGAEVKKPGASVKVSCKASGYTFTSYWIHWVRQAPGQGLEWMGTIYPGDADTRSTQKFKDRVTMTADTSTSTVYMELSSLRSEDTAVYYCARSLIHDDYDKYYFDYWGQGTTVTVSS VL: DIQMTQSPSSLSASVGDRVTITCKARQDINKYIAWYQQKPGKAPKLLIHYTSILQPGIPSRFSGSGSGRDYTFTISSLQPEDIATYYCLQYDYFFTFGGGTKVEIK
reported: 58.9
--
binder: LM-001-LM-D01 (antibody, V domains shown, LM-D01 drug-linker conjugated; site and chain not stated) VH: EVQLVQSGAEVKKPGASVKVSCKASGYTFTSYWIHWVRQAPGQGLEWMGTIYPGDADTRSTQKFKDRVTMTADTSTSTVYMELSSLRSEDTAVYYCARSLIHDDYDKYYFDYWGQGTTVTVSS VL: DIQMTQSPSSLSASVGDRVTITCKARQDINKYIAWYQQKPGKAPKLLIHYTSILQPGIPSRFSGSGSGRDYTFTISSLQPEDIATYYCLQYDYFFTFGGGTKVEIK
reported: 48.4
